Tested on: astro (control astrocytes)
assay-text: Drug repurposing screens with cells derived from glioblastoma tumor samples (AID 1345199); note: nearly all actives have a fitted effect of over 40% in size; note: potency is the fitted concentration of half-maximal effect
assay-context: viability, ATP luminescence, 48 h; series mostly up to 45.9 µM
Records with an inconclusive call do not appear. Active and inactive are the calls of the source. Calls come from the whole dose curve; as a rule, active = well fitted inhibition curve with a large enough effect; inconclusive = small, poorly fitted or top-dose-only effect; inactive = flat fitted curve, though single readings scatter.
measurement-label: Potency

c1ccc2c(c1)Sc1ccccc1N2C[C@@H]1CN2CCC1CC2
inactive
CC(=O)O[C@H]1C[C@H](O[C@H]2[C@@H](O)C[C@H](O[C@H]3[C@@H](O)C[C@H](OC4CC[C@@]5(C)C(CC[C@@H]6[C@@H]5CC[C@]5(C)[C@@H](C7=CC(=O)OC7)[C@@H](O)C[C@]65O)C4)O[C@@H]3C)O[C@@H]2C)O[C@H](C)[C@H]1O[C@@H]1O[C@H](CO)[C@@H](O)[C@H](O)[C@H]1O (stereo not given in full)
0.708 µM (active)
CCCCCc1cc(O)c2c(c1)OC(C)(C)c1ccc(C)cc1-2
22.4 µM (active)
CC(C)=CCN1CC[C@]2(C)c3cc(O)ccc3C[C@H]1[C@H]2C
inactive
COC(=O)[C@H]1[C@@H](OC(=O)c2ccccc2)C[C@@H]2CC[C@H]1N2C
inactive
C1CN(P2(N3CC3)=NP(N3CC3)(N3CC3)=NP(N3CC3)(N3CC3)=N2)CCO1 (stereo not given)
inactive

The reported value for COc1ccc(OC)c(C[C@H](C)N)c1 in terms of Potency is inactive

The reported value for C[C@@H]1[C@H]2Cc3ccc(O)cc3[C@]1(C)CCN2C in terms of Potency is inactive

The reported value for C=CCC1([C@@H](C)CCC)C(=O)NC(=O)NC1=O in terms of Potency is inactive

The reported value for CCCSc1cc(OC)c(CCN)cc1OC in terms of Potency is 31.6 µM (active)

* * *

assay-text: Primary qHTS for inhibitors of nuclear receptor binding SET domain protein 2 (NSD2) in an RCH-ACV wild type WT cells (2C) (AID 1645877); note: nearly all actives have a fitted effect of over 70% in size
assay-context: RCH-ACV (leukaemia line) NSD2 WT (2C) viability, CellTiter-Glo, 72 h; series mostly up to 44.9 µM
Excerpt: Assay Provider: Jonathan D. Licht, MD University of Florida College of Medicine, Gainesville, FL Mutations in epigenetic regulators are common in relapsed pediatric acute lymphoblastic leukemia (ALL). Here, we uncovered the mechanism underlying the relapse of ALL driven by an activating mutation of the NSD2 histone methyltransferase (p.E1099K). […] Correction of this mutation restored glucocorticoid sensitivity. […]
Inconclusive results are not listed. Activity calls are given as the source filed them. The call rests on the fitted dose curve; in most records, active means well fitted inhibition curve with a large enough effect; inconclusive means small, poorly fitted or top-dose-only effect; inactive means no such curve, though single readings can be large or run the other way. *1 amine or outer side, *2 acyl side, *3 side chain or, on linkers, in order; H or OH if unused. Where a SMILES comes first, the peptide text is derived from it. [ ]: non-standard residue; d: D form. X5 = CC(CC(O[*:1])C(=O)[*:2])C(=O)O; NMeV = CN[CH](C(=O)O)C(C)C; NMeA = CN[CH](C)C(=O)O; βAla = NCCC(=O)O
Please answer using one outcome listed in active, inactive

Solved cases below.
CC[C@@]1(O)C(=O)OCc2c1cc1n(c2=O)Cc2cc3c(OC)cccc3nc2-1
active
Cc1ccc2c(c1)[C@H]1CN(C)CC[C@H]1N2C(=O)CSc1nnnn1-c1ccc(Cl)cc1
inactive
C[C@]12CC[C@H](O)CC1=CC[C@@H]1C2CC[C@]2(C)[C@@H](C3=CC(=O)OC3)CC[C@]12O (stereo not given in full)
active

Short answer needed: outcome of this test for CCOP(=O)(OCC)Oc1ccc2c(C)cc(=O)oc2c1 ?
inactive

Short answer needed: outcome of this test for CCC(C)C1NC(=O)C2CCCN2C(=O)C(CC(C)C(=O)O)OC(=O)CCNC(=O)C(C)N(C)C(=O)C(C(C)C)N(C)C1=O (stereo not given) (cyclo([X5]PI[NMeV][NMeA][βAla]); configuration not given here) ?
inactive

Short answer needed: outcome of this test for COCC1OC(=O)c2coc3c2C1(C)C1=C(C3=O)C2CCC(=O)C2(C)CC1OC(C)=O (stereo not given) ?
active

Short answer needed: outcome of this test for CC(C)(C)[C@]1(O)C[C@@H]2OC(=O)C[C@@]23C(=O)O[C@@H]2OC(=O)[C@@H](O)[C@]213 ?
inactive

Short answer needed: outcome of this test for CCCN(CCC)[C@@H]1CCc2ccc3[nH]c(C#N)cc3c2C1 ?
inactive

Short answer needed: outcome of this test for CC(=O)O[C@H]1C(=O)[C@]2(C)C(O)C[C@H]3OC[C@@]3(OC(C)=O)[C@H]2[C@H](OC(=O)c2ccccc2)[C@]2(O)C[C@H](O)C(C)=C1C2(C)C (stereo not given in full) ?
active

Short answer needed: outcome of this test for COC1CC(O[C@H]2CC[C@]3(C=O)C4CC[C@]5(C)[C@@H](C6=CC(=O)OC6)CC[C@]5(O)[C@@H]4CC[C@@H]3C2)OC(C)C1O[C@@H]1O[C@H](CO)[C@@H](O[C@@H]2O[C@H](CO)[C@@H](O)[C@H](O)[C@H]2O)[C@H](O)[C@H]1O (stereo not given in full) ?
active

Short answer needed: outcome of this test for CC1(C)C(=O)N(c2ccc(C#N)c(C(F)(F)F)c2)C(=O)N1CCCCO ?
inactive

Short answer needed: outcome of this test for CC(C)=CCC[C@]1(C)C=Cc2c(O)c3c(c(CC=C(C)C)c2O1)O[C@]12C(=C[C@@H]4CC1C(C)(C)O[C@@]2(C/C=C(/C)C(=O)O)C4=O)C3=O ?
active

* * *

study-system: Nucleoprotein (Lymphocytic choriomeningitis virus (strain Armstrong)) (UniProt P09992)
Sequence (P09992 whole entry, looked up): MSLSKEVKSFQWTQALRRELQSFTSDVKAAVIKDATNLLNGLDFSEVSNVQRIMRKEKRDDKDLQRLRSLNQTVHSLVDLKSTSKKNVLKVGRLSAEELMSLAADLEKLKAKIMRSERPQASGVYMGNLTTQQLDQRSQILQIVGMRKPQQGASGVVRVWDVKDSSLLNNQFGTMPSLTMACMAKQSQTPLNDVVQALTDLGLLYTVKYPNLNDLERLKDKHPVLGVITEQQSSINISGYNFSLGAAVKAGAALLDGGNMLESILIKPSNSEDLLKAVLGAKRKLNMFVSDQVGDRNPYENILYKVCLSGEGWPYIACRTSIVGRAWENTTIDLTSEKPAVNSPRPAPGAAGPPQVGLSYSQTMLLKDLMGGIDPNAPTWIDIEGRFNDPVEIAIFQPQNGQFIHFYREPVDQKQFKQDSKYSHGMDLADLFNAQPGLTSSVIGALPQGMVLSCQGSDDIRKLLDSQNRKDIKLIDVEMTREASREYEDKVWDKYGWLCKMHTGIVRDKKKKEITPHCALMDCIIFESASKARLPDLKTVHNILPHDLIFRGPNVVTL
assay-text: qHTS for Inhibitors of the Functional Ribonucleoprotein Complex (vRNP) of Lymphocytic Choriomeningitis Arenaviruses (LCMV): LCMV Primary Screen - GLuc reporter signal (AID 1347086); note: nearly all actives have a fitted effect of over 70% in size
assay-context: LCMV minigenome vRNP cell assay, Gaussia luciferase reporter; series mostly up to 57.5 µM
Results filed as inconclusive are left out. Activity calls are given as the source filed them. The call rests on the fitted dose curve.
measurement-label: outcome

// known answers, use as guide
CC1(C)C=Cc2c(c3c(c4c(=O)c(-c5ccc(O)cc5)coc24)OC(C)(C)CC3)O1
inactive
N[C@H]1CONC1=O
inactive
Cc1ccn(-c2ccc(-c3ncco3)cc2)c(=O)c1-c1ccc2nc(N)ncc2c1
inactive
Cc1cc(OCCCS(C)(=O)=O)cc(C)c1-c1cccc(COc2ccc3c(c2)OC[C@H]3CC(=O)O)c1
inactive
C[C@@]12C[C@@]3(O)O[C@@H](O1)[C@]1(COC(=O)c4ccccc4)[C@@H]3C[C@@]12O[C@@H]1O[C@H](CO)[C@@H](O)[C@H](O)[C@@H]1O
inactive

The reported value for CC(C)CCCCCCCCCCCCCCC(=O)O in terms of outcome is inactive

The reported value for C=C[C@H]1[C@H](O[C@@H]2O[C@H](CO)[C@@H](O)[C@H](O)[C@H]2O)OC=C2C(=O)OCC[C@]21O in terms of outcome is inactive

The reported value for O=C(Nc1cccc(Nc2ncc(Br)c(NCCc3cnc[nH]3)n2)c1)N1CCCC1 in terms of outcome is inactive

The reported value for Cn1c2c(c(=O)c3ccccc31)C[C@@H](O)C(C)(C)O2 in terms of outcome is inactive

The reported value for O=C(CS(=O)Cc1ccco1)NCC=CCOc1cc(CN2CCCCC2)ccn1 (centres undefined) in terms of outcome is inactive

The reported value for CC[C@H](C)C(=O)N[C@H]1CCCN1C(=O)/C=C/c1ccccc1 in terms of outcome is inactive

The reported value for CC(=O)NNC(=O)N1Cc2ccccc2Oc2ccc(Cl)cc21 in terms of outcome is inactive

The reported value for CC(C)(O[C@@H]1O[C@H](CO)[C@@H](O)[C@H](O)[C@H]1O)[C@@H]1CC=C(C(=O)O)CC1 in terms of outcome is inactive

* * *

assay-text: qHTS for Inhibitors of the Functional Ribonucleoprotein Complex (vRNP) of Lymphocytic Choriomeningitis Arenaviruses (LCMV): Viability assay - alamar blue signal for LCMV Primary Screen (AID 1347085); note: nearly all actives have a fitted effect of over 80% in size; note: potency is the fitted concentration of half-maximal effect
assay-context: alamar blue viability counter-screen, LCMV vRNP screen cells; series mostly up to 57.5 µM
Inconclusive results are not listed. The source made the active and inactive calls. Calls follow the shape of the full dose curve; tested in HEK293 reporter line.
measurement-label: Potency

// known answers, use as guide
CNC(=O)CN1CCC(Oc2cc3c(Nc4cccc(Cl)c4F)ncnc3cc2OC)CC1
0.0306 µM (active)
CC[C@@H]1C=C(C)C[C@H](C)C[C@H](OC)[C@H]2O[C@@](O)(C(=O)C(=O)N3CCCC[C@@H]3C(=O)O[C@H](C(C)=C[C@@H]3CC[C@H](Cl)[C@H](OC)C3)[C@H](C)[C@@H](O)CC1=O)[C@H](C)C[C@H]2OC
inactive
NC1C(O)OC(CO)[C@@H](O)[C@@H]1O[C@H]1O[C@@H](C(=O)O)C(O)C(O)C1O (stereo not given in full)
inactive
COc1ccccc1N1CCN(CCN2C(=O)CC3(CCCC3)CC2=O)CC1
inactive
NC(=O)C1=CN(C2OC(COP(=O)(O)OP(=O)(O)OC[C@H]3O[C@@H](n4cnc5c(N)ncnc54)[C@H](OP(=O)(O)O)[C@@H]3O)C(O)C2O)C=CC1 (stereo not given in full)
inactive
c1ccc2c(c1)ccc1ccccc12
inactive

The reported value for CC[C@]1(O)C[C@@H]2CN(CCc3c([nH]c4ccccc34)[C@@](C(=O)OC)(c3cc4c(cc3OC)N(C=O)[C@@H]3C45CCN4CC=C[C@](CC)([C@H]45)[C@@H](OC(C)=O)[C@]3(O)C(=O)OC)C2)C1 (stereo not given in full) in terms of Potency is inactive
